Exercise: state measured cell count for each of the compounds provided.
Assay Summary: inhibitors of TNFa-induced NFkB p65 translocation, primary screen, imaging, HUVEC, MLSMR starter and 10KST1 sets (AID 438);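 further: compound added about 3h40 before a 20 min TNFalpha stimulation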
Test Conditions: HUVEC TNFa-induced p65 nuclear translocation; measured here: nuclei count (cytotoxicity indicator), at 2.08 µM
Just the number, please.

Recorded cell count (compound Cc1ccc(N(CC(=O)O)C2SC(=O)NC2=O)cc1 (centres undefined) ): 529

Recorded cell count (compound CCOC(=O)CSC1=C(C#N)C(c2ccc3c(c2)OCO3)CC(=O)N1 (centres undefined) ): 562

Recorded cell count (compound CC1(C)Cc2nc(NCCCO)c(C#N)cc2CO1 ): 503

Recorded cell count (compound CCOC(=O)c1[nH]c2cc3c(cc2c1NC(=O)CN1CCCCC1C)OCO3 (centres undefined) ): 588

Recorded cell count (compound CC(C)N1CC=C2C(C#N)=C(N)C(C#N)(C#N)C(c3ccccc3)C2C1 (centres undefined) ): 535

Recorded cell count (compound CN1CCN(Cc2c(O)ccc3c(-c4ccccc4)cc(=O)oc23)CC1 ): 362

Recorded cell count (compound CCn1cc(C(=O)O)c(=O)c2cc(F)c(N3CCNCC3)nc21 ): 528

Recorded cell count (compound S=c1[nH]nc(-c2ccco2)n1Cc1ccccc1 ): 367

Recorded cell count (compound Cn1c(SCC(=O)N2CCOCC2)nnc1-c1cccc(NC(=O)c2ccccc2F)c1 ): 576

====

Assay Summary: inhibitors of TNFa-induced NFkB p65 translocation, primary screen, imaging, HUVEC, MLSMR starter and 10KST1 sets (AID 438);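 further: compound added about 3h40 before a 20 min TNFalpha stimulation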
Test Conditions: HUVEC TNFa-induced p65 nuclear translocation; measured here: nuclei count (cytotoxicity indicator), at 2.08 µM
Exercise: state measured cell count for each of the compounds provided.
Just the number, please.

Recorded cell count (compound O=C(Nc1ccc2c(c1)OCO2)c1cncc(Br)c1 ): 613

Recorded cell count (compound COCCN(C(=O)Nc1ccccc1)c1ccccc1C ): 443

Recorded cell count (compound OC(CCCN1CCC(O)(c2ccc(Cl)cc2)CC1)c1ccc(F)cc1 (stereo unspecified) ): 686

Recorded cell count (compound Nc1nonc1-c1noc(N2CCOCC2)n1 ): 306

Recorded cell count (compound COC(=O)c1ccccc1N1C(=O)[C@@H]2C(c3ccc(Br)cc3)=NO[C@@H]2C1=O ): 269

Recorded cell count (compound Cc1cc(C)n(CC2CC(=O)N(c3ccc(Cl)c(Cl)c3)C2=O)n1 (stereo unspecified) ): 566

====

Assay Summary: inhibitors of E-selectin induction by TNFa, primary screen, imaging, HUVEC, immunofluorescence, MLSMR starter and 10KST1 sets (AID 487);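 further: 100% = median nuclei count of all wells on the same plate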
Test Conditions: HUVEC TNFalpha-induced E-selectin immunofluorescence imaging, at 2 µM; measured here: cell number, toxicity
Measurement Kind: nuclei count (%)
Hi! Could you send only the number? It should be in %, unit omitted.

Recorded nuclei count (compound CC(=O)N[C@H]1C[C@@H]1c1ccccc1 ): 103

Recorded nuclei count (compound CN(C)c1ccc(O)c2c1CC1CC3[C@@H](N(C)C)C(=O)C(C(N)=O)=C(O)[C@]3(O)C(=O)C1=C2O (stereo not given in full) ): 131

Recorded nuclei count (compound c1cncc(-c2nnc3sc(C4CCCCC4)nn23)c1 ): 106

Recorded nuclei count (compound COc1cc(/C=C/C(=O)CC(=O)/C=C/c2ccc(O)c(OC)c2)ccc1O ): 119

Recorded nuclei count (compound NS(=O)(=O)c1cc2c(cc1Cl)NC(CSCc1ccccc1)=NS2(=O)=O ): 116

====

Assay Summary: DUSP6 inhibitors restoring Erk phosphorylation by chemical complementation, primary imaging in DUSP6-transfected HeLa (AID 609)
Test Conditions: HeLa MKP-3 transfected, phospho-Erk imaging KS statistic; measured here: nuclear c-Myc green intensity z-score; at 10 µM; cells stimulated with TPA for 15 min
Decision: z-score >= 0.08 yields Satisfied, all other cases yield Not satisfied.

[ask] Please indicate if the recorded z-score for COC(=O)CSC1=C(C#N)C(=O)NC2(CCCCC2)S1 meets or exceeds 0.08.
[reply] Satisfied

[ask] Please indicate if the recorded z-score for COc1ccc(C2=Nn3c(nnc3-c3ccccc3)SC2)cc1OC meets or exceeds 0.08.
[reply] Satisfied

[ask] Please indicate if the recorded z-score for O=C(O)CC(NCc1ccco1)C(=O)OCCc1ccccc1 (stereo unspecified) meets or exceeds 0.08.
[reply] Satisfied

[ask] Please indicate if the recorded z-score for CCOC(=O)C(C)Oc1nc(Oc2ccccc2)nc(N(C)C)n1 (stereo unspecified) meets or exceeds 0.08.
[reply] Not satisfied

[ask] Please indicate if the recorded z-score for CCOC(=O)c1[nH]c2ccc(OC)cc2c1NC(=O)CN1CCN(c2ccccn2)CC1 meets or exceeds 0.08.
[reply] Satisfied

[ask] Please indicate if the recorded z-score for COc1cccc(C(=O)N2CCN(S(=O)(=O)Cc3ccccc3)CC2)c1OC meets or exceeds 0.08.
[reply] Not satisfied

[ask] Please indicate if the recorded z-score for O=C1[C@@H]2[C@H](C(=O)N1O)[C@H]1C=C[C@@H]2C1 meets or exceeds 0.08.
[reply] Satisfied

[ask] Please indicate if the recorded z-score for CC(=Nc1ccc(C)c(C)c1)C1=C(O)CCC1=O meets or exceeds 0.08.
[reply] Not satisfied

[ask] Please indicate if the recorded z-score for Cc1c(N2C(=O)SC(CC(=O)O)C2=O)c(=O)n(-c2ccccc2)n1C (stereo unspecified) meets or exceeds 0.08.
[reply] Not satisfied

[ask] Please indicate if the recorded z-score for COC(=O)C1=C(C)N=C2SC(C)C(=O)N2C1c1cccs1 (stereo unspecified) meets or exceeds 0.08.
[reply] Not satisfied

[ask] Please indicate if the recorded z-score for CC1(C)Cc2c(sc3nc(SCC#N)n(C4CCCCC4)c(=O)c23)CO1 meets or exceeds 0.08.
[reply] Satisfied

[ask] Please indicate if the recorded z-score for Cc1cc(C)n(C(=O)CSc2nc3ccccc3o2)n1 meets or exceeds 0.08.
[reply] Satisfied

[ask] Please indicate if the recorded z-score for Cc1ccc2c(c1)C(CCN)C(=O)N2Cc1ccccc1 (stereo unspecified) meets or exceeds 0.08.
[reply] Satisfied

[ask] Please indicate if the recorded z-score for COc1ccccc1N(O)C1CC(=O)N(c2ccc(Br)cc2)C1=O (stereo unspecified) meets or exceeds 0.08.
[reply] Satisfied

[ask] Please indicate if the recorded z-score for N#CC1=C(C=Nc2ccccc2O)CCC1 meets or exceeds 0.08.
[reply] Not satisfied

[ask] Please indicate if the recorded z-score for CCN1CCN(c2nc3c(C)cccn3c(=O)c2/C=C(\C#N)S(=O)(=O)c2ccccc2)CC1 meets or exceeds 0.08.
[reply] Not satisfied

[ask] Please indicate if the recorded z-score for O=C1C=C(O)CC(c2cccs2)C1 (stereo unspecified) meets or exceeds 0.08.
[reply] Not satisfied

[ask] Please indicate if the recorded z-score for CCCCNC(=O)N1CCOCCOCCN(C(=O)NCCCC)CCOCCOCC1 meets or exceeds 0.08.
[reply] Not satisfied

[ask] Please indicate if the recorded z-score for CSC1=C(C#N)C(C)CC(=O)N1 (stereo unspecified) meets or exceeds 0.08.
[reply] Not satisfied

[ask] Please indicate if the recorded z-score for c1ccc(Cc2nn[nH]n2)cc1 meets or exceeds 0.08.
[reply] Satisfied

[ask] Please indicate if the recorded z-score for CC1(C)Cc2c(sc3ncn4nnnc4c23)CO1 meets or exceeds 0.08.
[reply] Not satisfied

[ask] Please indicate if the recorded z-score for CC(=O)OCc1c(COC(C)=O)[n+](=O)c2ccccc2n1[O-] meets or exceeds 0.08.
[reply] Not satisfied

[ask] Please indicate if the recorded z-score for C=CCn1cnc2c(c1=O)c1nc3ccccc3nc1n2-c1ccc(Cl)cc1 meets or exceeds 0.08.
[reply] Not satisfied

[ask] Please indicate if the recorded z-score for CCNCc1cc2cc(C)ccc2[nH]c1=O meets or exceeds 0.08.
[reply] Not satisfied

[ask] Please indicate if the recorded z-score for CCOC(=O)C1=C(C)NC(=O)NC1c1ccc2c(c1)OCO2 (stereo unspecified) meets or exceeds 0.08.
[reply] Satisfied

[ask] Please indicate if the recorded z-score for Nc1nnc(-c2cccc(Cl)c2Cl)c(N)n1 meets or exceeds 0.08.
[reply] Not satisfied

[ask] Please indicate if the recorded z-score for COn1c(=S)[nH]c2ccccc2c1=O meets or exceeds 0.08.
[reply] Satisfied

[ask] Please indicate if the recorded z-score for CCC1(c2ccccc2)C(=O)NCNC1=O meets or exceeds 0.08.
[reply] Satisfied

[ask] Please indicate if the recorded z-score for CC12CCC(C(=O)NCCCN3CCOCC3)(OC1=O)C2(C)C (stereo unspecified) meets or exceeds 0.08.
[reply] Satisfied

[ask] Please indicate if the recorded z-score for Cc1c(C)c2cc(Cl)c(O)c(CN3CCCCC3)c2oc1=O meets or exceeds 0.08.
[reply] Not satisfied

====

Exercise: state measured nuclei count for each of the compounds provided.
Assay Summary: inhibitors of E-selectin induction by TNFa, primary screen, imaging, HUVEC, immunofluorescence, MLSMR starter and 10KST1 sets (AID 487);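 further: 100% = median nuclei count of all wells on the same plate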
Test Conditions: HUVEC TNFalpha-induced E-selectin immunofluorescence imaging, at 2 µM; measured here: cell number, toxicity
Hi! Could you send only the number? It should be in %, unit omitted.

Recorded nuclei count (compound CC(=O)N1CC=C2C(C#N)=C(N)C(C#N)(C#N)[C@H](c3ccoc3)[C@H]2C1 ): 90.4

Recorded nuclei count (compound CCSc1nnc(N(CCC#N)CCC#N)s1 ): 114

Recorded nuclei count (compound Cc1cc(C)n(C(=O)CN2C(=O)CCC2=O)n1 ): 155

Recorded nuclei count (compound CCOC(=O)c1nc2nc(C)c(Cl)c(=O)n2[nH]1 ): 153

Recorded nuclei count (compound COCCCNc1nc(-c2ccncc2)nc2ccccc12 ): 126

Recorded nuclei count (compound CCOC(=O)C(CC(=O)O)N1CCCCC1 (stereo not given) ): 89.2

Recorded nuclei count (compound CCn1cc(C(=O)NCc2ccccn2)c(=O)c2cc(F)c(N3CCN(C)CC3)cc21 ): 185

Recorded nuclei count (compound Cn1c(NCCN2CCCCC2)cc(=O)n(C)c1=O ): 125

Recorded nuclei count (compound CC(C(=O)N1CCCCC1)N1C(=O)c2ccccc2C1=O (stereo not given) ): 122

Recorded nuclei count (compound CCN(CC)CCn1c(O)c(N=O)c2ccccc21 ): 111

Recorded nuclei count (compound Cc1coc2c(O)cc3c(c12)OC1(N2CCCCC2)C(=O)NCCCC31 (stereo not given) ): 144

Recorded nuclei count (compound Cc1ccccc1N1C(=O)C2ON(c3ccccc3)C(c3ccncc3)C2C1=O (stereo not given) ): 156

Recorded nuclei count (compound CN1CCN(C2=Nc3ccccc3Oc3ccc(Cl)cc32)CC1 ): 105

Recorded nuclei count (compound CCCCC(=O)O[C@H]1CC[C@H]2[C@@H]3CCc4cc(O)ccc4[C@H]3CC[C@]12C ): 131

Recorded nuclei count (compound O=C(c1cccc2ccccc12)N1CCC(N2CCN(c3ccccc3)CC2)CC1 ): 81.4

Recorded nuclei count (compound CCc1nnc(NC(=O)c2c(O)c3c([nH]c2=O)CCCC3)s1 ): 154

Recorded nuclei count (compound O=C1c2ccccc2C(=O)N1CCN1CCc2ccccc21 ): 166

Recorded nuclei count (compound NS(=O)(=O)c1cc2c(cc1C(F)(F)F)NC(Cc1ccccc1)NS2(=O)=O (stereo not given) ): 105

Recorded nuclei count (compound N#C/C(=N\O)c1nc(-c2ccccc2)cs1 ): 149

Recorded nuclei count (compound Cn1ncc2c(Nc3ccccc3Br)ncnc21 ): 128

Recorded nuclei count (compound N#Cc1c(NC(=O)CCC(=O)O)sc2c1CCCC2 ): 186

Recorded nuclei count (compound COc1ccc2[nH]c(C)c(C(=O)CN3CCc4cc(OC)c(OC)cc4C3)c2c1 ): 117

Recorded nuclei count (compound CCNC(=O)Nn1c(C)nnc1C ): 129

Recorded nuclei count (compound COC(=O)c1ccn(C(=O)c2ccc(Cl)cc2)n1 ): 147

Recorded nuclei count (compound Cc1c(CCC#N)c(N2CCN(C3CCCCC3)CC2)n2c(nc3ccccc32)c1C#N ): 128

Recorded nuclei count (compound Cc1cc(C)c2nc(SCCC#N)nc(C)c2c1 ): 157

Recorded nuclei count (compound CCN(CC)CCOC(=O)C(c1ccccc1)c1ccccc1 ): 122

Recorded nuclei count (compound Cc1cc(Cn2ccnc2)c(C)cc1Cn1ccnc1 ): 124

Recorded nuclei count (compound N=c1c(C(=O)NCc2ccccc2)cc2c(=O)n3ccccc3nc2n1Cc1ccco1 ): 133

Recorded nuclei count (compound Cc1c([C@H]2[C@@H](CC#N)C2(C)C)c2ccccc2n1C ): 153

Recorded nuclei count (compound CCCCCc1nc2sc3c(c2c(=O)n1N)CCC3 ): 166

Recorded nuclei count (compound CCCNC(=O)NS(=O)(=O)c1ccc(Cl)cc1 ): 120

Recorded nuclei count (compound Cc1nc2n[nH]c(N)c2c2c1COC(C)(C)C2 ): 178

Recorded nuclei count (compound CCOC(=O)c1cc2cc(OC)ccc2[nH]1 ): 87.4

Recorded nuclei count (compound COc1ccc(C(=O)Cn2c(N3CCCCC3)nc3c2c(=O)n(C)c(=O)n3C)cc1OC ): 115
